Target: GHSR1a (Homo sapiens, UniProt Q92847)
Construct: expressed in transfected cells; host or cells: HEK293
Sequence (Q92847 whole entry): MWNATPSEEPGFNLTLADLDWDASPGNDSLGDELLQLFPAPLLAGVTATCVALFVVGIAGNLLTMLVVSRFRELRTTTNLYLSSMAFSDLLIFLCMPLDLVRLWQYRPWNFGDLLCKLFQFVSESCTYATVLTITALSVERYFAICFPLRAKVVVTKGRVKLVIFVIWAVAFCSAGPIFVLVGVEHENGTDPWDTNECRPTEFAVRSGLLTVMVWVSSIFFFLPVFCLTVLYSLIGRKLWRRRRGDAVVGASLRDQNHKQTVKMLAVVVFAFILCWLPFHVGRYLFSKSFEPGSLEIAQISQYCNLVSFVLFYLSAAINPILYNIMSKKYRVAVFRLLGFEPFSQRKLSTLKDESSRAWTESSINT
Assay: Calcium FLIPR assay, GHSR-1a agonism
Type: cell-based
Details: HEK293/GHSR1a cells
pEC50: −log10 of the molar value.
Result type: pEC50

compound="COc1ccc(-c2ccc(C(C)NC(=O)N(C)C3CCN(C)CC3)c(Cl)c2Cl)cc1 (stereo not shown)" result_type=pEC50 relation_qualifier=< reported=4.52
compound="CC(NC(=O)N(C)C1CCN(C)CC1)c1ccc(-c2cncc(CO)c2)c(Cl)c1Cl (stereo not shown)" result_type=pEC50 relation_qualifier=< reported=4.52
compound="Cc1noc(-c2ccc(C(C)NC(=O)N(C)C3CCN(C)CC3)c(Cl)c2Cl)n1 (stereo not shown)" result_type=pEC50 relation_qualifier== reported=8.52
compound="CC(NC(=O)N(C)C1CCN(C)CC1)c1ccc(-c2cccc(F)c2)c(Cl)c1Cl (stereo not shown)" result_type=pEC50 relation_qualifier== reported=7.66

---

List of pIC50 values.
Target: GHSR1a (Homo sapiens)
Experiment: Calcium FLIPR assay, GHSR-1a antagonism (reduction of ghrelin response)
Conditions: HEK293/GHSR1a cells, ghrelin 10 nM
pIC50: −log10 of the molar value.
Result type: pIC50

compound="CC(NC(=O)N(C)C1CCC(F)(F)CC1)c1ccc(-c2cncnc2)c(Cl)c1Cl (centres unmarked)" result_type=pIC50 relation_qualifier=< reported=4.52
compound="C#Cc1ccc(C(C)NC(=O)N(C)C2CCN(C)CC2)c(Cl)c1Cl (centres unmarked) [Compound H0603]" result_type=pIC50 relation_qualifier== reported=8.70
compound="CC(NC(=O)N(C)C1CCN(C)CC1)c1ccc(-c2cccc(C(N)=O)c2)c(Cl)c1Cl (centres unmarked)" result_type=pIC50 relation_qualifier== reported=5.80
compound="CN1CC[C@@H](N(C)C(=O)NC(c2ccc(-c3cnccn3)c(Cl)c2Cl)C(F)(F)F)C(C)(C)C1 (some centres unmarked)" result_type=pIC50 relation_qualifier== reported=8.22
compound="CC(NC(=O)N(C)C1CCN(C)CC1)c1ccc(-c2nccnn2)c(Cl)c1Cl (centres unmarked)" result_type=pIC50 relation_qualifier== reported=7.68
compound="CC(NC(=O)N(C)C1CCN(C)CC1)c1ccc(-c2cocn2)c(Cl)c1Cl (centres unmarked)" result_type=pIC50 relation_qualifier== reported=7.06
compound="CC(NC(=O)N(C)C1CCN(C)CC1)c1ccc(C#CCc2cccs2)c(Cl)c1Cl (centres unmarked)" result_type=pIC50 relation_qualifier== reported=7.48
compound="CC(NC(=O)N(C)C1CCN(C)CC1)c1ccc(-c2cncc(C3CCCC3)c2)c(Cl)c1Cl (centres unmarked)" result_type=pIC50 relation_qualifier== reported=6.30
compound="C#Cc1ccc(C(C)NC(=O)N(OCC)C2CCN(C)CC2)c(Cl)c1Cl (centres unmarked)" result_type=pIC50 relation_qualifier== reported=6.95
compound="CCc1cncc(-c2ccc(C(C)NC(=O)N(C)C3CCN(C)CC3)c(Cl)c2Cl)c1 (centres unmarked)" result_type=pIC50 relation_qualifier== reported=7.24
compound="CN1CCC(N(C)C(=O)NC(CC2CC2)c2ccc(-c3cnccn3)c(Cl)c2Cl)C1 (centres unmarked)" result_type=pIC50 relation_qualifier== reported=6.94
compound="CC(NC(=O)N(C)C1CCN(C)CC1)c1ccc2c(NC3CC3)noc2c1 (centres unmarked)" result_type=pIC50 relation_qualifier== reported=4.92
compound="CCOC(C#Cc1ccc(C(C)NC(=O)N(C)C2CCN(C)CC2)c(Cl)c1Cl)OCC (centres unmarked)" result_type=pIC50 relation_qualifier== reported=6.80
compound="CC(NC(=O)N(C)C1CCN(C)CC1)c1ccc(-c2cncc(C=O)c2)c(Cl)c1Cl (centres unmarked)" result_type=pIC50 relation_qualifier== reported=7.11
compound="CC(NC(=O)N(C)C1CCN(C)CC1)c1ccc(-c2cncc(-c3c[nH]cn3)c2)c(Cl)c1Cl (centres unmarked)" result_type=pIC50 relation_qualifier== reported=5.73
compound="CC(NC(=O)N(C)C1CCN(C)CC1)c1ccc(-c2ccc(N)cc2)c(Cl)c1Cl (centres unmarked)" result_type=pIC50 relation_qualifier== reported=7.72
compound="COc1ccc(-c2ccc(C(C)NC(=O)N(C)C3CCN(C)CC3)c(Cl)c2Cl)cn1 (centres unmarked)" result_type=pIC50 relation_qualifier== reported=7.01
compound="CN1CCC(N(C)C(=O)NC(C#N)c2ccc(-c3cncc(C#N)c3)c(Cl)c2Cl)CC1 (centres unmarked)" result_type=pIC50 relation_qualifier== reported=8.10
compound="CC(NC(=O)N(C)C1CCN(C)CC1)c1ccc(-c2cncc(C(F)(F)F)n2)c(Cl)c1Cl (centres unmarked)" result_type=pIC50 relation_qualifier== reported=6.90
compound="CC(=O)c1ccc(-c2ccc(C(C)NC(=O)N(C)C3CCN(C)CC3)c(Cl)c2Cl)s1 (centres unmarked)" result_type=pIC50 relation_qualifier== reported=7.92
compound="COc1cccc(-c2ccc(C(C)NC(=O)N(C)C3CCN(C)CC3)c(Cl)c2Cl)c1 (centres unmarked)" result_type=pIC50 relation_qualifier== reported=7.62
compound="CC(NC(=O)N(C)C1CCN(C)CC1)c1ccc(-c2cncc(CC#N)c2)c(Cl)c1Cl (centres unmarked)" result_type=pIC50 relation_qualifier== reported=6.77
compound="CC(NC(=O)N(C)C1CCN(C)CC1)c1ccc(-c2cn[nH]c2)c(Cl)c1F (centres unmarked)" result_type=pIC50 relation_qualifier== reported=6.81
compound="COc1ccc(C(NC(=O)N(C)C2CCN(C)CC2)C(N)=O)c(Cl)c1Br (centres unmarked)" result_type=pIC50 relation_qualifier== reported=6.41
compound="CC(NC(=O)N(C)C1CCN(C)CC1)c1ccc(-c2cncc(C(F)F)c2)c(Cl)c1Cl (centres unmarked)" result_type=pIC50 relation_qualifier== reported=7.07
compound="CC(NC(=O)N(C)C1CCN(C)CC1)c1ccc(-c2ccc(N(C)C)cc2)c(Cl)c1Cl (centres unmarked)" result_type=pIC50 relation_qualifier== reported=6.08
compound="CC(NC(=O)N(C)C1CCN(C)CC1)c1ccc(-c2ccnnc2)c(Cl)c1Cl (centres unmarked)" result_type=pIC50 relation_qualifier== reported=6.17
compound="CC(NC(=O)N(C)C1CCN(C)CC1)c1ccc(-c2sccc2CO)c(Cl)c1Cl (centres unmarked)" result_type=pIC50 relation_qualifier== reported=6.58
compound="CC(NC(=O)N(C)C1CCN(C)CC1)c1ccc(-c2cncc(-c3ccoc3)c2)c(Cl)c1Cl (centres unmarked)" result_type=pIC50 relation_qualifier== reported=6.67
compound="CC(NC(=O)N(C)C1CCN(C)CC1)c1ccc(-c2cncc(-c3cn[nH]c3)c2)c(Cl)c1Cl (centres unmarked)" result_type=pIC50 relation_qualifier== reported=6.73
compound="CC(NC(=O)N(C)C1CCN(C)CC1)c1ccc(-c2cnc(NC3CC3)nc2)c(Cl)c1Cl (centres unmarked)" result_type=pIC50 relation_qualifier== reported=8.40
compound="CC(NC(=O)N(C)C1CCN(C)C1)c1ccc(-c2cccnc2)c(Cl)c1Cl (centres unmarked)" result_type=pIC50 relation_qualifier== reported=7.24
